Assay: xn = mol fraction of the nth substance listed, in the solute-free solvent
Conditions: 313.15 K; x2 = 0.8
recorded-metric: solubility (g/100 g solution)

Here is how some compounds turned out for solubility (g/100 g solution).
- O=C(CC(=O)c1ccccc1)c1ccccc1 + CO + O: 2.52
- CC1(C)SC2C(NC(=O)C(NC(=O)N3CCNC3=O)c3ccccc3)C(=O)N2C1C(=O)O (stereo not given) + CCO + CC(C)O: 1.38

I. CCCCN1CCCCC1C(=O)Nc1c(C)cccc1C.Cl.O (stereo not given) + CO + O
II. CCCCN1CCCCC1C(=O)Nc1c(C)cccc1C.Cl.O (stereo not given) + CCO + O
III. O=C(CC(=O)c1ccccc1)c1ccccc1 + CCO + O
Task: Order the items by recorded solubility (g/100 g solution); the first position goes to the largest value. Order the labels as requested and give them as your answer.
Output: I, II, III
(I: 17.3, II: 9.54, III: 6.03)

* * *

Assay: xn = mol fraction of the nth substance listed, in the solute-free solvent
Details: 283.15 K; x2 = 0.7297
recorded-metric: solubility (g/100 g solution)

Here is how some compounds turned out for solubility (g/100 g solution).
• CS(=O)(=O)c1ccc(C(O)C(CF)NC(=O)C(Cl)Cl)cc1 (centres undefined) + CC(C)O + O = 0.407
• O=[N+]([O-])c1cc[nH]n1 + CCCO + O = 2.69

a. CC(=O)Nc1ccc(OC(=O)c2ccccc2OC(C)=O)cc1 + CC(C)O + O
b. COC(=O)C1=C(C)NC(C)=C(C(=O)OCC(C)C)C1c1ccccc1[N+](=O)[O-] (centres undefined) + CCCO + O
Task: Could you please tell me which of these two has the higher solubility (g/100 g solution): a or b ? // output: label of the selected item
Output: b

* * *

Assay: xn = mol fraction of the nth substance listed, in the solute-free solvent
Conditions: 313.15 K; x2 = 0.7
recorded-metric: solubility (g/100 g solution)

- CCOC(=O)C1=CC2(CC)CCCN3CCc4c(n1c1ccccc41)C32 (stereo not given) + CCO + O: 1.3
- O=c1ccc2ccccc2o1 + CO + O: 59.2

A. CC1(C)SC2C(NC(=O)C(NC(=O)N3CCNC3=O)c3ccccc3)C(=O)N2C1C(=O)O (stereo not given) + CO + CC(C)O
B. CCCCN1CCCCC1C(=O)Nc1c(C)cccc1C.Cl.O (stereo not given) + CO + O
C. CCCCN1CCCCC1C(=O)Nc1c(C)cccc1C.Cl.O (stereo not given) + CCO + O
Task: Order by solubility (g/100 g solution), ascending. Order the labels as requested and give them as your answer.
Output: A, C, B
(A: 0.742, C: 9.34, B: 16.6)

* * *

Assay: xn = mol fraction of the nth substance listed, in the solute-free solvent
Settings: 323.15 K; x2 = 0.7
recorded-metric: solubility (g/100 g solution)

P. CC1(C)SC2C(NC(=O)C(NC(=O)N3CCNC3=O)c3ccccc3)C(=O)N2C1C(=O)O (centres undefined) + CO + CC(C)O
Q. CCOC(=O)C1=CC2(CC)CCCN3CCc4c(n1c1ccccc41)C32 (centres undefined) + CCO + O
R. CCCCN1CCCCC1C(=O)Nc1c(C)cccc1C.Cl.O (centres undefined) + CCO + O
S. CCCCN1CCCCC1C(=O)Nc1c(C)cccc1C.Cl.O (centres undefined) + CO + O
Task: Put the items above in order of decreasing solubility (g/100 g solution). Order the labels as requested and give them as your answer.
Output: S, R, Q, P
(S: 23.5, R: 16.1, Q: 1.97, P: 1.13)
